Reference source: the RNAGym collection of RNA variant scans (doi:10.1073/pnas.2313332121)

B1: TPR t1 (parent)
chain: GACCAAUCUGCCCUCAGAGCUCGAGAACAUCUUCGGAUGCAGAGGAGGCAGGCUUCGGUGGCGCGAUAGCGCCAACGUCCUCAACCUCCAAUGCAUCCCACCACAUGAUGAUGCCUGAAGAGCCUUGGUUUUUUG

Variants of: B1
testDetails: polymerase ribozyme fitness, log enrichment relative to wild type (log ratio); higher = more active; in vitro selection for triplet polymerase activity
Would you kindly list polymerase ribozyme fitness (log ratio) for each of these variants?
One number for each entry.

Some solved cases for reference:
C11A G39U C86U C104U G110A ... -2.77
U55G C82U A100U G113U ... -4.11
G63U U87A ... -1.45
A66C U87G A118U U132A ... -0.678
G45A C73U C88A U112C G122U ... 0.105

Provide reported polymerase ribozyme fitness (log ratio) for each item, in the same order as listed.
1. A6U C15G A43U C115U U116G G120A G122A
2. A74U U87A
3. G45A U59A C104U
4. G42C A46C C62U A95G U96G
5. C15G C56U U87A C115U U131C
6. C31A G77C U112C

Result:
1: -3.93; 2: -0.842; 3: -0.336; 4: -4; 5: -0.823; 6: -4.36
